Data credit: the supplement of paper PMC6755084

# System: F1*sub RNA substrate (template-directed ligation)
# Assay notes: fraction ligated after 30 min (ligated reads / total reads); higher = more ligase activity; sequences stand for … in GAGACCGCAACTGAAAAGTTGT…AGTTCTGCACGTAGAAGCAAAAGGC
# Condition notes: 42 °C

# Sequence entry, fraction ligated
data = [
    ("ATACTTGTCTAAGACACTTTGGATGGGTTGA [3d52]", 0.24),
    ("TATCACTTTCGTAAGACCTTTGGATGGGTTA [3d1552]", 0.623),
    ("TTCACTTGTCGTAAGCACTTGGATGGGTTGA [3d455]", 0.231),
    ("TACACTTGTCAAGACACTTTGGATGGGTTGA [3d632]", 0.167),
    ("TATCACTTGTCGTAAACACTTTATGGGTTGA [3d2088]", 0.0805),
    ("TATCACTTGTCGAACACTTTGGATGGGTTGA [3d1903]", 0.802),
    ("TTCACTTGTTAAGACACTTTGGATGGGTTGA [3d387]", 0.775),
    ("TATCACTTGTGAAGAACTTTGGATGGGTTGA [3d1721]", 0.851),
]

====

# Test system: F1*sub RNA substrate (template-directed ligation)
# Assay notes: fraction ligated after 30 min (ligated reads / total reads); higher = more ligase activity; sequences stand for … in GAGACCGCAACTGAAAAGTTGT…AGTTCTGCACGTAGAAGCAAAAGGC
# Condition notes: 42 °C
Listed next: entries and their corresponding fraction ligated.
Parameter: fraction ligated

# Sequence entry, Measured on, Measurement
rows = [
    ("TATCACTTGTCGAAACACTTTGGATGGTTGA [3d1922]", "F1*sub RNA substrate (template-directed ligation)", 0.0984),
    ("TACCTTGTCGTAAGACACTTTGGAGGGTTGA [3d543]", "F1*sub RNA substrate (template-directed ligation)", 0.24),
    ("ATCACTTGTCGTAAGACACTTGGATGGGTTG [3d259]", "F1*sub RNA substrate (template-directed ligation)", 0.687),
    ("TATCATTGTCTAAGACACTTTGGATGGGTTG [3d1200]", "F1*sub RNA substrate (template-directed ligation)", 0.769),
    ("TATACTTGTCGTAACACTTTGGATGGGTTGA [3d871]", "F1*sub RNA substrate (template-directed ligation)", 0.27),
    ("TATCATTGTCGTAAGACACTTTGGAGGGTTA [3d1287]", "F1*sub RNA substrate (template-directed ligation)", 0.0162),
    ("ATCACTTTCGTAAGACACTTGGATGGGTTGA [3d133]", "F1*sub RNA substrate (template-directed ligation)", 0.748),
    ("TATCCTTGTCGAAGCACTTTGGATGGGTTGA [3d1031]", "F1*sub RNA substrate (template-directed ligation)", 0.775),
    ("TATCACTTGTCGAAGCACTTTGGATGGTTGA [3d1932]", "F1*sub RNA substrate (template-directed ligation)", 0.159),
    ("TATCACTTTCTAAGACCTTTGGATGGGTTGA [3d1484]", "F1*sub RNA substrate (template-directed ligation)", 0.783),
    ("TATCATGTCGAAGACACTTTGGATGGGTTGA [3d1126]", "F1*sub RNA substrate (template-directed ligation)", 0.792),
    ("ATCACTTGTCGTAAGACATTTGGATGGTTGA [3d250]", "F1*sub RNA substrate (template-directed ligation)", 0.445),
    ("TATCACTTGTCGAGCACTTTGGATGGGTTGA [3d1904]", "F1*sub RNA substrate (template-directed ligation)", 0.749),
    ("TTCACTTGTCGTAAGACACTTTGGAGGGTTGA [2d43]", "F1*sub RNA substrate (template-directed ligation)", 0.227),
    ("TATCCTTGTCGTAAGAACTTTGGATGGGTTA [3d1081]", "F1*sub RNA substrate (template-directed ligation)", 0.351),
    ("TATCACTTTCTAAGACACTTTGGAGGGTTGA [3d1489]", "F1*sub RNA substrate (template-directed ligation)", 0.026),
    ("TATCACTTGTGTAAACCTTTGGATGGGTTGA [3d1745]", "F1*sub RNA substrate (template-directed ligation)", 0.807),
    ("TATCACTTGTCGTAAGACCTTTGTGGGTTGA [3d2191]", "F1*sub RNA substrate (template-directed ligation)", 0.0153),
    ("TATCACTTGCGAAGACACTTTGGATGGGTTGA [2d165]", "F1*sub RNA substrate (template-directed ligation)", 0.835),
    ("TATCACTGCGTAAGACCTTTGGATGGGTTGA [3d1334]", "F1*sub RNA substrate (template-directed ligation)", 0.857),
    ("ATATTGTCGTAAGACACTTTGGATGGGTTGA [3d47]", "F1*sub RNA substrate (template-directed ligation)", 0.0915),
    ("TATCACTGCGTAAGACACTTTGGTGGGTTGA [3d1338]", "F1*sub RNA substrate (template-directed ligation)", 0.119),
    ("TATCACTTGTCGTAAGACCTTGGATGGGTTGA [2d262]", "F1*sub RNA substrate (template-directed ligation)", 0.791),
    ("TACACTTGTCGTAAGCACTTTGGATGGGTTG [3d691]", "F1*sub RNA substrate (template-directed ligation)", 0.151),
]
